# System: SEM cells
# Method summary: cell viability relative to DMSO control; higher = less cytotoxic
# Details: HPLM + 10% dialyzed FBS; 48 h; 0.00234 µM
Experimental endpoint: cell viability (%)

> print(dat)
                                    compound  observed.measurement
 1   Cc1coc2c1C(=O)C(=O)c1c-2ccc2c1CCCC2(C)C                  98.6
 2  CN1CC(=O)N2[C@H](c3ccc4c(c3)OCO4)c3[nH]c4ccccc4c3C[C@@H]2C1=O                  88.6
 3      CC1=CC(=CC(=C1C\C2=N\CCN2)C)C(C)(C)C                  90.1
 4  COc1cccc2c1C(=O)c1c(O)c3c(c(O)c1C2=O)C[C@@](O)(C(=O)CO)C[C@@H]3O[C@H]1C[C@H](N)[C@H](O)[C@H](C)O1                   103
 5  C=CC(=O)Nc1cc2c(Nc3ccc(F)c(Cl)c3)ncnc2cc1OCCCN1CCOCC1                   107
 6  COC(=O)C\1=C(C)\N\C(=C(/C1C2=CC=CC3=NON=C23)C(=O)OC(C)C)C (stereo not given)                  98.6
 7  Nc1ncnc2c1c(-c1cccc(OCc3ccccc3)c1)cn2[C@H]1C[C@@H](CN2CCC2)C1                   125
 8  CC(C)(O)CC(=O)NCCn1ccc2ncnc(Nc3ccc(Oc4cccc(C(F)(F)F)c4)c(Cl)c3)c21                   110
 9  CNc1nc(Nc2cnn([C@H]3CCN(C4COC4)C[C@@H]3F)c2Cl)ncc1C(F)(F)F                  89.1
10  CNC(=O)c1ccc(Nc2cc(Nc3ccccc3[S+](=O)([O-])C(C)C)c3cc[nH]c3n2)nc1                  76.4
11  Cc1ccc([S+](=O)([O-])OCC(=O)Nc2ccc(C(=O)O)c(O)c2)cc1                  97.1
12       OCC(O)C(O)C(O)CO (stereo not given)                  83.7
13  Cc1ccccc1C(=O)Nc1ccc(C(=O)N2CCCC(O)c3cc(Cl)ccc32)c(C)c1 (stereo not given)                  97.2
14  Cc1cccc(Nc2ccncc2[S+](=O)([O-])NC(=O)NC(C)C)c1                  82.6
15  CCCCOc1c(C(=O)c2c(F)cc(C)cc2F)cnc2[nH]ncc12                   111
16  CCCNC(=O)Nc1ccc(Oc2ncnc3cc(OC)c(OC)cc23)cc1Cl                  93.5
17  C[C@@H](CN1CC(=O)NC(=O)C1)N1CC(=O)NC(=O)C1                   103
18  Nc1ccc([S+](=O)([O-])Nc2ccnn2-c2ccccc2)cc1                  89.9
19                           N[C@@H]1CONC1=O                   100
20             CCc1ccc(/C=C2/SC(=S)NC2=O)cc1                  63.5
